- assay_target: Sphingosine 1-phosphate receptor 4 (Homo sapiens, UniProt O95977)
- Sequence (O95977 whole entry): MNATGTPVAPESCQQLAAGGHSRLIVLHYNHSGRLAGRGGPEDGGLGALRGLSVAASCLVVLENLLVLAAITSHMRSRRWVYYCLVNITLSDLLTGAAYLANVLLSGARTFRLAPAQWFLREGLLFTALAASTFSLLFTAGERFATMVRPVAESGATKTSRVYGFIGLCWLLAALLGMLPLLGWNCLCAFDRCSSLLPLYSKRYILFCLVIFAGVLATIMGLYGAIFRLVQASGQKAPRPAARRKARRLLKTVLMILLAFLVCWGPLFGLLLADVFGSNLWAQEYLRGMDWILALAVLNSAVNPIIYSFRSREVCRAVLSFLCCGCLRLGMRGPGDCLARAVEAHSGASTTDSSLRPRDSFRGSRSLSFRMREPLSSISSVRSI
- assay_notes: Agonist activity at human recombinant S1P4 expressed in CHO cell membranes assessed as stimulation of [35S]-GTPgammaS binding measured after 45 mins by liquid scintillation counting assay
pEC50: −log10 of the molar value.
observed_property: pEC50

P = CCCCCCCCc1ccc(CC[C@](N)(CO)COP(=O)(O)O)cc1
Q = COc1ccccc1CC[C@@H]1CCc2cc([C@H]3CC[C@](N)(COP(=O)(O)O)C3)ccc2C1
Ask: Choose between P and Q : whose measured pEC50 value is numerically larger? State your choice using its label.
Result: P

###

- assay_notes: Half-life in Lewis rat at 2 mg/kg, po measured over 72 hrs by LC-MS/MS analysis
- Assay type: ADME, organism-based
- run_conditions: in vivo
observed_property: half-life (h)

These solved cases illustrate the format of a correct answer.
COc1cccc(CC2CCc3cc([C@H]4CC[C@](N)(CO)C4)ccc3C2)c1 (stereo in doubt; 12a) | 15
COc1ccc(CC[C@H]2CCc3cc([C@H]4CC[C@](N)(CO)C4)ccc3C2)cc1 | 7
COc1ccccc1CC[C@@H]1CCc2cc([C@H]3CC[C@](N)(CO)C3)ccc2C1 | 27
COc1ccc(CC[C@@H]2CCc3cc([C@H]4CC[C@](N)(CO)C4)ccc3C2)cc1 | 11
COc1cccc(CC[C@@H]2CCc3cc([C@H]4CC[C@](N)(CO)C4)ccc3C2)c1 | 31
COc1cccc(CC[C@H]2CCc3cc([C@H]4CC[C@](N)(CO)C4)ccc3C2)c1 | 49

a = COc1ccccc1CC[C@H]1CCc2cc([C@H]3CC[C@](N)(CO)C3)ccc2C1
b = COc1ccc(CC2CCc3cc([C@H]4CC[C@](N)(CO)C4)ccc3C2)cc1 (stereo in doubt; 13b)
Ask: When the recorded half-life values are compared, which is smaller: that of a or that of b ? State your choice using its label.
Result: a
